Data credit: ChEMBL document CHEMBL1121715

# ASSAY_NOTES: Volume of distribution was measured at given dose of 83 umol/kg
# Type: ADME, organism-based
# TEST_SETTINGS: in vivo
MEASURED_ENDPOINT: Vd (L/kg)
Just the number please, in L/kg, no unit attached.

Note to self: Vd recorded for CN(C)CCCCN1C(=O)CC2(CCCc3ccc(O)cc32)C1=O (stereo unspecified) was 3.02

###

# ASSAY_NOTES: Total body clearance was measured at given dose
# Assay type: ADME
MEASURED_ENDPOINT: ClB (mL/min/kg)
Just the number please, in mL/min/kg, no unit attached.

Note to self: ClB recorded for CN(C)CCCCN1C(=O)CC2(CCCc3ccc(O)cc32)C1=O (configuration not stated) was 17.5

Note to self: ClB recorded for CCN(CC)CCCN1C(=O)CC2(CCCc3ccc(O)cc32)C1=O (configuration not stated) was 6.06
